Reference source: paper PMC6137088

Tested on: E. coli F2513 (R4)
Format: cell-based, Escherichia coli
Conditions: Table 4; E. coli F2513 (R4 prototype, rough LPS); triplicates
Where no end group is shown, it is not given here.
Provide the reported Antimicrobial activity (MIC) of each item.

Task item: Find the recorded Antimicrobial activity (MIC) belonging to GLRKRLRKFRNKIKEKLKKIGQKIQGLLPKLAPRTDY [Cap18] and report it.
Reply: 2 to 4 µg/mL

Task item: Here is the next sequence: GLRKKFRKTRKRIQKLGRKIGKTGRKVWKAWREYGQIPYPCRI [Cap11]
Reply: 4 to 8 µg/mL

Task item: Here is the next sequence: KLRKLFRKLLKLIRKLLR [Cap11-1-18 m^2]
Reply: 8 to 16 µg/mL

Task item: Here is the next sequence: SWLSKTAKKLENSAKKRISEGIAIAIQGGPR [Cecropin P1]
Reply: 16 to 32 µg/mL
